Every entry's value here was drawn from patent US5374733A.

Experiment: Stability: accelerated ageing in aqueous solution at pH 3 and 70° C., remaining product by HPLC (half-life)
Assay type: physicochemical
Details: accelerated ageing, pH 3, 70° C.
Text: The stability of the compounds of the invention, in particular those containing the L-glutamyl residue, is very high and can in certain cases be about three hundred times greater than that of the compounds of the prior art. […]
READOUT KIND: stability (in words)

[[record]]
compound = "CCCCC(C)(C)C(=O)N[C@@H](CCC(=O)O)C(=O)Nc1ccc(C#N)nc1"
observed_value = "excellent"

[[record]]
compound = "CCCC[C@H](C)C(=O)N[C@@H](CCC(=O)O)C(=O)Nc1ccc(C#N)nc1 [Example 1]"
observed_value = "excellent"

[[record]]
compound = "CCCC[C@H](C)C(=O)N[C@@H](CCC(=O)O)C(=O)Nc1ccc(C#N)cc1"
observed_value = "excellent"

